target: T1, 磷脂酰肌醇蛋白聚糖3(GPC3) (UniProt P51654 25-554); experiment: flow cytometry on GPC3-CHO-S cells, full-length IgG1
T1 construct: whole, on cells; also called MXR7; OCI-5
T1 sequence (P51654 25-554 limits assumed, form in doubt): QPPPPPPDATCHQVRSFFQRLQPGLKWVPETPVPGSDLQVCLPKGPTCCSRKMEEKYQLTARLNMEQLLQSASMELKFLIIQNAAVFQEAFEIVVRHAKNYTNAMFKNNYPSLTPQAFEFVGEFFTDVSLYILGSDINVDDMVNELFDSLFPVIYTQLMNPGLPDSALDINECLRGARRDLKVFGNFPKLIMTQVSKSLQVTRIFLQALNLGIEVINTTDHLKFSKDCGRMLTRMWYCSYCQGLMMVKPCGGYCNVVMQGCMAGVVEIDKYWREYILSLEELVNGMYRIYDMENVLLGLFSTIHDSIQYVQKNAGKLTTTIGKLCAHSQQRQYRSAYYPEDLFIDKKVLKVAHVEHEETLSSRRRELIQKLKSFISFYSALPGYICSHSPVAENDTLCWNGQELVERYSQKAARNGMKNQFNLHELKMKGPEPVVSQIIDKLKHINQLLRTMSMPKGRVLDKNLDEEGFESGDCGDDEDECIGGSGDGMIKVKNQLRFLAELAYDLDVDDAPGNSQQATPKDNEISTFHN

binder | unit.info | EC50
D37 (antibody, V domains shown, also called 克隆D37) VH: QVQLLESGGGLVQPGGSLRLSCAASGFTFSSYAMNWVRQAPGKGLEWVSTISGSGGSTYYADSVKGRFTISRDNSKNTLYLQMNSLRAEDTAVYYCARGSWGAFDIWGQGTPVTVSS VL: DIQLTQSPSSLSASVGDRVTITCQASQGISNYVNWYQQKPGKAPELLISDAYNLEAGVPSTFSGSGSGTQFTFTISSLQPEHIGTYYCQQFETIPWTFGQGTKIEVK | µg/mL | 0.0314

FYI, the data here is from patent CN114621348A.
